molecular target: T1, human C5 protein (human, UniProt P01031 19-673; P01031 678-1676); assay: competitive fluorescence polarization vs probe R3076, Exp 2
T1 construct: Natural C5 is made from one precursor and circulates as two disulfide-linked chains; also called complement component C5; purified human C5
Starred links: 1 amine or outer side, 2 acyl side, 3 side chain; linkers in the order of their positions; H or OH if unused. Positions of bridges follow the written chain, without caps; N, C: chain ends. Non-standard residues stand in square brackets, D forms with d. No end group written: not given here. mXylyl = bridging moiety between residues (mXylyl(i,j)); Trp(7-aza) = N[C@@H](Cc1c[nH]c2ncccc12)C(=O)O; pXylylene = c1cc(C[*:2])ccc1C[*:1]; Phg = N[C@H](C(=O)O)c1ccccc1; Tle = CC(C)(C)[C@H](N)C(=O)O; NMeS = CN[C@@H](CO)C(=O)O; Nva = CCC[C@H](N)C(=O)O
List of Ki values.
endpoint: Ki (nM)

binder: Ac-[Nva]CYEN[Tle]Y[Trp(7-aza)]EYP[Phg]P-NH2 (SMILES CCC[C@H](NC(C)=O)C(=O)N[C@@H](CS)C(=O)N[C@@H](Cc1ccc(O)cc1)C(=O)N[C@@H](CCC(=O)O)C(=O)N[C@@H](CC(N)=O)C(=O)N[C@H](C(=O)N[C@@H](Cc1ccc(O)cc1)C(=O)N[C@@H](Cc1c[nH]c2ncccc12)C(=O)N[C@@H](CCC(=O)O)C(=O)N[C@@H](Cc1ccc(O)cc1)C(=O)N1CCC[C@H]1C(=O)N[C@H](C(=O)N1CCC[C@H]1C(N)=O)c1ccccc1)C(C)(C)C) [R3003]
measurement-units: nM
censoring-sign: =
assay-value: 8.69
--
binder: Ac-[Nva]C[Phg]T[Trp(7-aza)]EY[NMeS]HC[Nva]P-NH2 (linker 2-10 via mXylyl) [R3011]
measurement-units: nM
censoring-sign: =
assay-value: 86.9
--
binder: Ac-YPYC[Phg][Trp(7-aza)][Tle]E[Nva]NY[Nva]E-NH2 (SMILES CCC[C@H](NC(=O)[C@H](Cc1ccc(O)cc1)NC(=O)[C@H](CC(N)=O)NC(=O)[C@H](CCC)NC(=O)[C@H](CCC(=O)O)NC(=O)[C@@H](NC(=O)[C@H](Cc1c[nH]c2ncccc12)NC(=O)[C@@H](NC(=O)[C@H](CS)NC(=O)[C@H](Cc1ccc(O)cc1)NC(=O)[C@@H]1CCCN1C(=O)[C@H](Cc1ccc(O)cc1)NC(C)=O)c1ccccc1)C(C)(C)C)C(=O)N[C@@H](CCC(=O)O)C(N)=O, negative control in the FP assays; also called control polypeptide; scrambled polypeptide variant of R3002) [R3023]
measurement-units: nM
censoring-sign: >
assay-value: 1000
--
binder: MCVERFCDVYWE-NH2 (linker 2-7 via mXylyl) [R3043]
measurement-units: nM
censoring-sign: =
assay-value: 882
--
binder: Ac-C[Phg]T[Trp(7-aza)]EY[NMeS]HC[Nva]P[Nva]-NH2 (linker 1-9 via mXylyl) [R3014]
measurement-units: nM
censoring-sign: =
assay-value: 1580
--
binder: Ac-[Nva]C[Phg]T[Trp(7-aza)]EY[NMeS]HC[Nva]-NH2 (linker 2-10 via pXylylene) [R3050]
measurement-units: nM
censoring-sign: =
assay-value: 57.6
